All figures here come from PubChem BioAssay (NCI).

Tested on: SK-MEL-28 melanoma
Test: NCI-60 one-dose screen, 48 h (100 = growth as untreated, 0 = no growth, -100 = all killed)
Details: 10 µM unless noted
Compounds without any hit were thinned out: in the full panel of roughly 83,000, 20% have a hit.
Assignment: determine reported growth for the given molecules.
Please give a number only; it is taken to be in %.

# query: growth of entry `Nc1c(C(=O)c2ccc(Cl)cc2)sc(Nc2ccccc2)c1-c1nc2ccccc2s1`
42.6

# query: growth of entry `COc1cc(CNC(=O)CCCC/C=C/C(C)C)ccc1OCc1cn(-c2ccc(C(F)(F)F)cc2)nn1`
107

# query: growth of entry `FC(F)(F)c1cc(N2CCCCC2)nc(NCCCNc2ccnc3cc(Cl)ccc23)n1`
76.7

# query: growth of entry C#CCOc1ccc(C2=NN(C)C3N=C(Cl)c4ncn(C)c4N23)cc1OCC#C (stereo not given)
96.5

# query: growth of entry `Cc1ccc(C(F)(F)F)cc1N1CCN(C(=O)[C@H]2C[C@H]2c2ccc(C(F)(F)F)nc2)CC1`
100

# query: growth of entry `CC/C(=C(/c1ccc(Cl)cc1)c1ccc(OCCN2CCCC2)cc1)c1ccccc1`
76.9

# query: growth of entry `Cn1cc(-c2csc(-c3cn(C)c4ccc(F)cc34)n2)c2cnccc21`
-95.9

# query: growth of entry `O=C(O)/C=C/c1cn(-c2ccccc2)nc1-c1ccc(F)cc1`
104

# query: growth of entry CCN1C(=O)N(CC)C2C1NC(=S)N2/N=C/C=C/c1cccs1 (stereo not given)
49.2

# query: growth of entry `COc1cc(-c2c(-c3ccccc3)c[nH]c2C(=O)NCCCO)c(OC)c2c1OCO2`
107

----------
Tested on: OVCAR-5 ovarian
Experiment: NCI-60 one-dose screen, 48 h (100 = growth as untreated, 0 = no growth, -100 = all killed)
Conditions: 10 µM unless noted
Compounds without any hit were thinned out: in the full panel of roughly 83,000, 20% have a hit. Calls of active or inactive are those of the source. Rule for the calls: active = growth percent below 10; inactive = the rest.
Assignment: determine reported growth for the given molecules.

# query: growth of entry CSc1nc(N)c2c(n1)NC(c1ccccc1)C1CCc3ccccc3C1=N2 (stereo unspecified)
121% (inactive)

# query: growth of entry `Cc1cc(N2CCOCC2)nc(N(CCCNc2ccnc3cc(Cl)ccc23)Cc2ccc3c(c2)OCO3)n1`
22.7% (inactive)

# query: growth of entry `C=CCn1c(SCC(=O)Nc2ccc(C(=O)/C=C/c3cc(OC)c(OC)c(OC)c3)cc2)nnc1-c1cc(-c2ccc(S(N)(=O)=O)cc2)nc2ccccc12`
123% (inactive)

# query: growth of entry Cc1ccc(C23CCC(=O)N2CCc2cncn23)cc1 (stereo unspecified)
96.3% (inactive)

# query: growth of entry `O=C(/C=C\c1ccc(O)c(O)c1)c1ccccc1O`
103% (inactive)

# query: growth of entry `O=C(/C=C/c1ccco1)c1ccc(Nc2ccnc3cc(Cl)ccc23)cc1`
70.2% (inactive)

----------
Tested on: HCT-15 colon
Test: NCI-60 one-dose screen, 48 h
Conditions: 10 µM unless noted
This is part of a sample that, as a whole, favours compounds with a hit. Of some 83,000 tested, about 20% had one in any assay. The source made the active and inactive calls. Rule for the calls: active = growth percent below 10; inactive = the rest.
Outcome field: choose from true (1) for active, false (0) for inactive

GET /call?item= CCN(CC)CCCC(Nc1c2ccc(Cl)cc2nc2ccc(OC)cc12)c1ccncc1 (stereo unspecified) returns the recorded outcome of this test.
false (0)

GET /call?item= Cc1[nH]c(C2CC(c3ccc(C(F)(F)F)c(F)c3)=NN2C)c(C)c1C(=O)NCC(F)(F)F (stereo unspecified) returns the recorded outcome of this test.
false (0)

GET /call?item= `Oc1ccc(C(c2ccc(O)cc2)c2ccc(Cl)cn2)cc1` returns the recorded outcome of this test.
false (0)

GET /call?item= `O=C(O)/C=C\C(=O)Nc1ccc2c(c1)Cc1cc(F)ccc1-2` returns the recorded outcome of this test.
false (0)

GET /call?item= C=C1CC[C@@H]2[C@](C)(COC(C)=O)[C@H](OC(C)=O)CC[C@@]2(C)[C@@H]1CC(Nc1ccc(S(=O)(=O)Nc2nccc(C)n2)cc1)C1=CCOC1=O (stereo partly specified) returns the recorded outcome of this test.
true (1)

GET /call?item= `COC(=O)c1c(C)nc(C)c2c1C(=O)C(Br)=C(NCCCCO)C2=O` returns the recorded outcome of this test.
false (0)

GET /call?item= `CCOc1ccccc1NC(=O)CCC(=O)OC` returns the recorded outcome of this test.
false (0)

GET /call?item= `O=C(Nc1ncc(Cc2cc(C(F)(F)F)ccc2Cl)s1)C(=S)N1CCOCC1` returns the recorded outcome of this test.
false (0)

GET /call?item= `CC(=O)/C(Br)=C/c1ccc(Br)o1` returns the recorded outcome of this test.
false (0)

GET /call?item= CCOC(=O)C1=C(C)N(C)C(=O)N(C)C1c1ccccc1 (stereo unspecified) returns the recorded outcome of this test.
false (0)

GET /call?item= CC1OC(C(=O)N2CCN(CCO)CC2)CC1COC1CCCCC1 (stereo unspecified) returns the recorded outcome of this test.
false (0)

GET /call?item= `COc1ccc(CNc2c3ccccc3nc3ccccc23)cc1OC` returns the recorded outcome of this test.
false (0)

GET /call?item= `CCN(CC)CCCNc1cc(OC)cc2cccnc12` returns the recorded outcome of this test.
false (0)

GET /call?item= `C=C(C)[C@@H]1CC[C@]2(C#N)CC[C@]3(C)[C@H](CC[C@@H]4[C@@]5(C)CCCNC(C)(C)[C@@H]5CC[C@]43C)[C@@H]12` returns the recorded outcome of this test.
false (0)

GET /call?item= `Cc1ccc2c(n1)C[C@H](C(C)(C)O)CC[C@H]2C` returns the recorded outcome of this test.
false (0)

GET /call?item= `COC(=O)[C@H]1Cc2c([nH]c3ccccc23)[C@H](c2ccc3c(c2)OCO3)N1` returns the recorded outcome of this test.
false (0)

GET /call?item= `COc1ccc2c(c1)c(-c1nc(-c3cn(C)c4ccncc34)cs1)cn2C` returns the recorded outcome of this test.
true (1)

GET /call?item= CCCn1cnc2c(c1=N)C(c1ccc(Cl)cc1)c1sc3c(F)cccc3c1O2 (stereo unspecified) returns the recorded outcome of this test.
false (0)

GET /call?item= O=C1CC2C=CCN2C=C1NC(=O)c1ccccc1 (stereo unspecified) returns the recorded outcome of this test.
false (0)

GET /call?item= `Nc1ncc(-c2ccc3ncnc(N4CCc5ccc(Cl)cc54)c3c2)cn1` returns the recorded outcome of this test.
true (1)

GET /call?item= `COc1ccc(/C=C\c2cc(OC)c(OC)c(OC)c2)cc1OCC(=O)Nc1nc2ccccc2s1` returns the recorded outcome of this test.
false (0)
